Recorded IC50 for compounds tested on UniProtKB Q06124, drawn from a number of studies.

Worked examples follow.
{"COMPOUND": "Cn1c(N2CCC3(CC2)Cn2nccc2[C@H]3N)nc2nc(Sc3ccnc(N)c3Cl)cnc21", "TGT": "UniProtKB Q06124", "PARAMETER": "IC50", "EXPERIMENTAL_RESULT": "50 to 300 nM"}
{"COMPOUND": "Nc1cnc(Sc2cnc(N3CCC4(CC3)Cn3nccc3[C@H]4N)cn2)c(Cl)n1", "TGT": "UniProtKB Q06124", "PARAMETER": "IC50", "EXPERIMENTAL_RESULT": "≤ 50 nM"}

Go through the items and report each one's IC50.
1. Cn1c(N2CCC3(CC2)Cn2nccc2[C@H]3N)ncc(Sc2ccnc(N)c2Cl)c1=O
2. COc1cc2n(n1)CC1(CCN(c3cnc(Sc4ccnc(N)c4Cl)cn3)CC1)[C@@H]2N
3. N[C@@H]1c2cnnn2CC12CCN(c1cnc3c(-c4cccc(Cl)c4Cl)n[nH]c3n1)CC2

Response given:
≤ 50 nM
≤ 50 nM
≤ 50 nM

For every record below, what is its IC50?
1. Cc1nc(N2CCC3(CC2)Cn2nccc2C3N)c(CO)nc1Sc1cccnc1C(F)(F)F (centres unmarked)
2. C[C@@H]1OCC2(CCN(c3nc4cnn(-c5ccc6cnn(C)c6c5)c4nc3CO)CC2)[C@@H]1N
3. Nc1nccc(Sc2cnc(N3CCC4(CC3)Cn3ncc(Cl)c3[C@H]4N)cn2)c1Cl

Response given:
1. 2.14 nM
2. < 50 nM
3. ≤ 50 nM

I have 2 compounds here; please give me IC50 for each one.
1. N[C@@H]1c2ccnn2CC12CCN(c1ncc(Sc3ccnc4c3OC[C@H]3CC5(CC5)CN43)n3cncc13)CC2
2. N[C@@H]1c2cccn2CC12CCN(c1cnc(Sc3ccnc(-n4cccn4)c3Cl)cn1)CC2

Response given:
1: 50 to 300 nM; 2: ≤ 50 nM

Given item Cc1nccc(-c2ncc3c(N4CCC5(CC4)Cn4nccc4[C@H]5N)nccn23)c1F , the value recorded as its IC50 is 50 to 300 nM
